Some compounds, each annotated with its measured growth inhibition.
# test: NCI Yeast Anticancer Drug Screen. Data for the mlh1 rad18 strain (AID 175)
# conditionInfo: S. cerevisiae mlh1 rad18 strain growth inhibition, active compounds read high; at 50.0 µM unless noted
Compounds without any hit were thinned out: in the full panel of roughly 79,000, 15% have a hit.
readout: growth inhibition (%)

# compound, readout, testValue
data = [
    ("CCC(O)(c1ccccc1)C(O)(CC)c1ccccc1 (configuration not stated)", "growth inhibition", 23.3),
    ("O=C(c1ccc(Cl)cc1)c1ccc(OCCCOc2ccc(C(=O)c3ccc(Cl)cc3)cc2Cl)c(Cl)c1", "growth inhibition", 2.15),
    ("OCc1ccc(Cl)c(Cl)c1", "growth inhibition", 3.3),
    ("CCC1=C(c2ccc(OC)cc2)CC[C@@]2(CCNC2=O)[C@@H]1C", "growth inhibition", 8.8),
    ("COc1ccc(C2=Nc3c(nc(OC)[nH]c3=O)NC(c3ccccc3)C2)cc1 (configuration not stated)", "growth inhibition", -21.8),
    ("CCCCCCCOC(=O)C1(O)CCCCC1", "growth inhibition", -16.6),
    ("CN1C(=O)N(c2cc(Cl)cc(Cl)c2)C(=N)C1=S", "growth inhibition", 37.5),
    ("O=C1C(NCCc2cc(Br)c(O)c(Br)c2)=CC(=O)c2ncccc21", "growth inhibition", 28.4),
    ("CNc1ccc(C=C2C=CC=C2)cc1", "growth inhibition", 55.7),
    ("COc1cc2cnc(-c3ccccc3)c(O)c2cc1OC", "growth inhibition", -6.55),
    ("NNC(=S)N/N=C/c1ccc([N+](=O)[O-])s1", "growth inhibition", 6.35),
    ("CC1NC(=O)OC12CCCCC2 (configuration not stated)", "growth inhibition", -30.4),
]

* * *

# test: NCI Yeast Anticancer Drug Screen. Data for the sgs1 mgt1 strain (AID 161);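 note: 0% = growth of cultures given vehicle only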
# conditionInfo: S. cerevisiae sgs1 mgt1 strain, active compounds read high; at 50.0 µM unless noted
The panel holds about 79,000 compounds, 15% with a hit somewhere; the sample as a whole holds those more often. Calls of active or inactive are those of the source. Cut-off read from the data, not from the text of the source: active = growth inhibition above about 70%; inactive = the rest.

# compound, growth inhibition
rows = [
    ("O=C(COCC(=O)N/N=C/C=C/c1ccccc1)N/N=C/C=C/c1ccccc1", "-0.65% (inactive)"),
    ("Nc1nc(N)c2ncn(Cc3ccccc3)c2n1", "-9.95% (inactive)"),
    ("O=C(NCCCOC(=O)CCCCCCCCC(=O)OCCCNC(=O)NC(=O)c1c[nH]c(=O)[nH]c1=O)NC(=O)c1c[nH]c(=O)[nH]c1=O", "-7.85% (inactive)"),
    ("COc1cccc(-c2cc(=O)c3cc(N4CCOCC4)ccc3[nH]2)c1", "-22.9% (inactive)"),
    ("c1ccc2c(c1)C(=NCCCN1CCCCCCC1)c1cccn1-2", "29.1% (inactive)"),
    ("Cc1ccc([N+](=O)[O-])cc1NC(=O)Sc1ccc(C(C)(C)C)cc1C", "4.65% (inactive)"),
    ("C=CCOC(=O)CCCC1=NC2=CC=CC3=NC(C)=NC(=N1)N23", "1.45% (inactive)"),
    ("COC(=O)c1cc(-c2ccc(N)cc2)n2c(N)nnc2n1", "25.8% (inactive)"),
    ("Nc1nc(Cl)c(C=O)c(NCC2(CO)CC(CCc3ccccc3)C2)n1 (configuration not stated)", "-32.8% (inactive)"),
    ("Cc1c2cc[n+](C)cc2c(C)c2c1oc1ccccc12", "78.8% (active)"),
    ("Cc1ccc(S(=O)(=O)OCCOCCOS(=O)(=O)c2ccc(C)cc2)cc1", "2.25% (inactive)"),
    ("CCN1CCC(S(=O)(=O)CCS(=O)(=O)C2CCN(CC)C2)C1 (configuration not stated)", "11.7% (inactive)"),
    ("Cc1ccc(S(=O)(=O)N(CC(=O)c2ccccc2)c2ccc(Br)cc2)cc1", "26.1% (inactive)"),
    ("CN(C)C(=O)Sc1cccc([N+](=O)[O-])c1", "-21.8% (inactive)"),
    ("O=S(=O)(CCCl)c1ccc(Br)cc1", "56.7% (inactive)"),
    ("COc1cc(OC)c2c(c1)OC(c1cccnc1)C(c1ccccc1)C2=O (configuration not stated)", "-5% (inactive)"),
    ("O=C(N/N=C(\\c1nc2ccc(Cl)cc2[nH]c1=O)C(O)c1ccccc1Cl)c1ccncc1 (configuration not stated)", "8.7% (inactive)"),
    ("c1cc(-c2ncc[nH]2)ccn1", "-4.25% (inactive)"),
    ("O=C(OCC1OCOC2C(COC(=O)c3ccccc3)OCOC12)c1ccccc1 (configuration not stated)", "8.05% (inactive)"),
    ("O=C1C2=C(C(=O)C3=C1C1CCC3C1)C1CCC2C1", "-11.7% (inactive)"),
    ("CCCCOC/N=C(/N)NC#N", "-5.2% (inactive)"),
    ("CC1=Nc2ccccc2S/C1=C(/C)NNS(=O)(=O)c1ccc(C)cc1", "0.25% (inactive)"),
    ("CC(C)(C)C(=O)CC(=O)C(F)(F)C(F)(F)C(F)(F)F.CC(C)(C)C(=O)CC(=O)C(F)(F)C(F)(F)C(F)(F)F.CC(C)(C)C(=O)CC(=O)C(F)(F)C(F)(F)C(F)(F)F.[La]", "-3.95% (inactive)"),
    ("Nc1nc(N)c(N=O)c(Nc2ccccc2)n1", "-8.35% (inactive)"),
    ("O=C(Nc1ccc(F)cc1)N1CCOCC1", "4.3% (inactive)"),
    ("Cc1cc(C(=O)C(C#N)=Nc2ccc(N(C)C)cc2)c(CN2C(=O)c3ccccc3C2=O)c(=O)n1C", "19.3% (inactive)"),
    ("C=CCC(C)(O)CCC(C)(O)CC=C (configuration not stated)", "-8.3% (inactive)"),
    ("CCCCC(NC(=O)C(C)NC(=O)OCc1ccccc1)C(=O)O (configuration not stated)", "3.4% (inactive)"),
    ("OC(c1ccccc1)(c1ccccc1)C1/C(=C/c2ccccc2)C1Cc1ccccc1 (configuration not stated)", "-7.9% (inactive)"),
    ("CN(C)CCl", "-12.4% (inactive)"),
    ("OCCN1CCN=C1Cc1ccccc1", "8.05% (inactive)"),
    ("COc1cc(/C=N/NC(=O)c2ccccc2OC)ccc1O", "22.9% (inactive)"),
    ("C#CCC(C(=O)OC)N(CC)CC (configuration not stated)", "41.4% (inactive)"),
    ("COc1ccc(OC(C)C(=O)O)c2c(=O)ccccc12 (configuration not stated)", "-5.2% (inactive)"),
    ("NC(Cc1cc(Br)c(Oc2ccc(O)cc2)c(Br)c1)C(=O)O (configuration not stated)", "-9.1% (inactive)"),
    ("CCCCCCCCCCCC(=O)NCc1ccc(OC(=O)CCCCCCCCCCC)c(OC)c1", "-6.3% (inactive)"),
    ("CCOC(=O)c1ccc2c(c1)C(=O)c1cc([N+](=O)[O-])ccc1-2", "4.8% (inactive)"),
    ("O=C1c2ccccc2C(=O)N1C/C=C/CO", "-1.45% (inactive)"),
    ("CCOC(=O)Cc1ccc2ccccc2c1", "-1.95% (inactive)"),
    ("COc1cc(C)cc2c1C(C)(C)CCC2(C)C", "-5.8% (inactive)"),
    ("CCc1cccc(CC)c1N1C(=O)CC(Sc2ccccc2N)C1=O (configuration not stated)", "-14.8% (inactive)"),
    ("CC1(C)OCC[C@@H]1[Si](C)(C)C", "14.2% (inactive)"),
    ("NC(=S)Nc1nnc(-c2ccc(-c3nnc(NC(N)=S)o3)cc2)o1", "-21.2% (inactive)"),
    ("Cc1c(=O)n(C)c2ccccc2[n+]1[O-]", "11.7% (inactive)"),
    ("CC12CC(=O)OC1(C)C1CCC2C1 (configuration not stated)", "-5.25% (inactive)"),
    ("Nc1nnc2nc(C3(c4nc5nnc(N)n5[nH]c4=O)CCCC3=O)c(=O)[nH]n12", "-8.7% (inactive)"),
    ("Cc1ccccc1C=NC12CC3CC(CC(C3)C1)C2", "-22.2% (inactive)"),
]

* * *

# test: NCI Yeast Anticancer Drug Screen. Data for the cln2 rad14 strain (AID 165);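 note: 0% = growth equal to vehicle treated cultures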
# conditionInfo: S. cerevisiae cln2 rad14 strain, active compounds read high; at 50.0 µM unless noted
# Procedure: Growth inhibition of yeast strains with defined genetic alterations is measured as a screen for potential anti-cancer activity. Selected strains with alterations in DNA damage repair or cell cycle control were exposed to compounds and growth inhibition was measured relative to vehicle treated controls. The strain used in this assay is cln2 rad14
About 79,000 compounds went through this panel and 15% of them were active in at least one assay; those are over-represented in the sample as a whole.

# compound, growth inhibition / %
data = [
    ("CCCCC(/C=C(\\C(C)=O)C(=O)OCC)CC (stereo not given)", -10.5),
    ("S=C(Nc1ccc2c(c1)oc1ccccc12)c1cccs1", -7.25),
    ("C=CCC(O)c1ccccc1OC (stereo not given)", 5.15),
    ("COc1ccc(OC)c(N)c1", 16.4),
    ("CC1=C(CCC(=O)O)c2cc3nc(cc4[nH]c(cc5[nH]c(cc1n2)c(C)c5C1CC1C(=O)O)c(C)c4C1CC1C(=O)O)C(C)=C3CCC(=O)O (stereo not given)", -0.6),
    ("O=C(CCCN1CCC2(CC1)C(=NC1CCCCC1)NC(=O)N2c1ccccc1)c1ccc(F)cc1", 3.45),
    ("Nc1ccccc1SC(CC(=O)c1ccc(-c2ccccc2)cc1)c1ccco1 (stereo not given)", -9.2),
    ("O=C(CCCn1ccnc1[N+](=O)[O-])NCCn1cnc([N+](=O)[O-])n1", -6.2),
    ("C=C1C(=O)OCC1C(=O)OCC (stereo not given)", 3.35),
    ("O=P(O)(O)c1ccc(-c2ccc(I)cc2)cc1", 22.2),
    ("CCCCCCCCCC(=O)Oc1cccc2c1CC(C[Se]c1ccccc1)C(=O)O2 (stereo not given)", -3.05),
    ("CCN(CC)C(=S)SCC(=O)Nc1nc2c(s1)CCCC2", 3.75),
    ("CN1N=C(c2ccncc2)OC1c1cccc(F)c1 (stereo not given)", 6.5),
    ("Cc1ccc(OCC(=O)O)c(Cl)c1", -22.4),
    ("CC1(c2ccccc2)C(=O)c2ccccc2-c2ccccc21 (stereo not given)", 3.45),
    ("CC1(C)CC(=O)C=C(n2ccccc2=O)C1", 7.5),
    ("CC1(C)C=C(C(c2cccc([N+](=O)[O-])c2)N2CCCCC2)C(=O)c2ccccc21 (stereo not given)", -40.9),
    ("CCN(CC)CC(=O)Nc1cc(Cl)ccc1OC", -35.3),
    ("CN(CCO)c1ccccc1", -17.9),
    ("CCOC(=O)C(=O)C(NC(=O)Cc1ccccc1)C(=O)OCC (stereo not given)", -15.8),
    ("Cc1sc2nc3n(c(=O)c2c1C)N=CN(c1ccc(Cl)cc1)C3", -3.15),
    ("Cn1nc(-c2ccccc2)c(C(=O)/C=C/c2ccccc2)c(N2CCCCC2)c1=O", 3),
    ("CC1C=NNC1=O (stereo not given)", 3.4),
    ("CC(C)(C)CC(C)(C)c1ccc(O)c(CN2CCCCC2)c1", -6.7),
    ("CC(=O)c1cccc(NC(=O)Oc2ccc(-c3ccccc3)cc2Cl)c1", 98.8),
]
